Values were extracted from patent US20250011363A1.

molecular target: acetylcholine receptor; assay: SPR, peptide at 10 uM on acetylcholine receptor
QUANTITY_MEASURED: Binding affinity (RU)

{"BINDER": "RHHMK [5mer-979]", "VALUE_MEASURED": 23}

P. KFMHK [5mer-982]
Q. KMEIR [5mer-965]
R. RNDIK [5mer-685]
Prompt: Put the items in sequence by Binding affinity (RU), from largest down. Output the labels ranked as instructed.
Completion: Q, R, P
